- ASSAY_DETAILS: Toxicity liver stage against HepG2, at 10uM
- Type: cell-based
- Design: test concentration 10 uM, cell line HepG2-A16-CD81EGFP
- MEASUREMENT_PARAMETERS: human, HepG2-A16-CD81EGFP cells; read-out: INHIBITION
Examples of molecules with documented cytotoxicity at 10 µM follow.
MEASURE: cytotoxicity at 10 µM (%)

| MOLECULE | NUMERIC_READOUT |
| --- | --- |
| Cc1cnc(N2CC3(CCN(Cc4cccnc4)C3)C2)nc1 | -2.36 |
| CC(O)CN1CCC(=O)N(Cc2ccccc2)Cc2ccccc21 (centres undefined) | -3.37 |
| CC(Cc1cccc(F)c1)C(=O)NS(=O)(=O)c1ccc2c(c1)OCCO2 (centres undefined) | 9.83 |
| CC(C)N(C)S(=O)(=O)N(C)Cc1ccc2c(c1)OCCO2 | -2.84 |
| CC(C)c1n[nH]c(C2CN(CCc3cccs3)CCO2)n1 (centres undefined) | -4.57 |
| CCN(C)c1ncnc2c1CCN(C(=O)COC)CC2 | 1.75 |
| COc1ccc(C(C)NC(=O)N2CCNC(=O)CC2)cc1F (centres undefined) | 13.5 |
| COC(=O)c1ccc2ccn(CC3CCCCO3)c(=O)c2c1 (centres undefined) | -0.551 |
| CCc1cnc(N2C[C@@H]3C[C@H](C(=O)NC)[C@H](C2)O3)nc1 | 9.76 |
| Cc1ncsc1CN1CC[C@](C)(O)[C@@H](Oc2cccc(F)c2)C1 | -14.8 |
| CC(C)CN1CCN(S(=O)(=O)c2cn(C)cn2)Cc2cccnc21 | -144 |
| NC(=O)[C@@H]1Cc2ccccc2CN1S(=O)(=O)N1CCCCC1 | 3.33 |
| COCc1nn(CC2CC2)c2c1CN(C(=O)c1ccno1)CC2 | 10.4 |
| COc1c(CNCc2cccnc2N2CCOCC2)c(C)nn1C | -151 |
| COc1ccnc(N2CCN(C(=O)CN3CCOCC3)CC2)n1 | -0.819 |
| CN(Cc1cc2cc(F)ccc2[nH]1)C(=O)C1CC(=O)N(C2CCCC2)C1 (centres undefined) | -3.26 |
| CCc1nsc(NC2CC(=O)N(C3CC3)C2)n1 (centres undefined) | 9.43 |
| CCc1nnc(CN2CCC(c3nc4cc(Cl)ccc4o3)CC2)o1 | -0.956 |
| O=C(c1ccco1)N1CC2(CCNCC2)c2cc(Cl)ccc21 | 0.199 |
| COCCC(=O)N1CCCCC1c1ccc(F)cc1 (centres undefined) | -41.3 |
| Cc1nc(NC2CCCC2)cc(C2CCN2C(=O)c2ccccn2)n1 (centres undefined) | -4.39 |
| CC1CCN(C(=O)c2ccc(N(C)Cc3cnn(C)c3)nc2)CC1 | -13.8 |
| Cc1cncc(NCc2ccccc2N2CCOCC2)c1 | 6.02 |
| CCN(CC(=O)NC(C)C)S(=O)(=O)N1CCC(C)C1 (centres undefined) | -3.26 |
| CCn1cc(CN2CCCN(C(=O)CCc3nccs3)CC2)cn1 | -2.53 |
| CN(Cc1ccn[nH]1)C(=O)CCC(=O)NC1CCCC1 | 0.324 |
| O=c1n(CCNc2cccc3ccccc23)nc2ccccn12 | 0.392 |
| O=C(NCc1cc[nH]n1)N1CCC(Oc2ccccc2Cl)CC1 | 8.16 |
| CN(C)Cc1ccnc(C2CN(Cc3nccs3)CCO2)n1 (centres undefined) | -2.61 |
| CC(C)n1cc(CN2CCCN(C(=O)c3ccco3)CC2)cn1 | -2.27 |
| CC(C)(O)CSCCNC(=O)c1ccc(F)cc1Cl | -10.9 |
| CN(C)CCOCC1CN(CCN(C)C)Cc2ccnn2C1 (centres undefined) | 0.656 |
| CN(C)S(=O)(=O)N1CCCCCC1c1cc(-c2ccc(F)cc2)no1 (centres undefined) | 10.6 |
| Cc1nc(-c2ccccc2C(=O)O)cc(C2CCN(C(C)C)C2)n1 (centres undefined) | -13.1 |
| CCc1nsc(N2CCCN(C(=O)COc3ccccc3)CC2)n1 | -1.74 |
| Cc1ccc(CN(C)C(=O)CN2CCOC(Cn3cncn3)C2)o1 (centres undefined) | -7.98 |
| Cc1cccc(-c2nc(CNC3CCc4ncnn4C3)no2)c1 (centres undefined) | -2.09 |
| CCc1nnc(CN(C)C(=O)C2CC(=O)N(C3CC3)C2)o1 (centres undefined) | 2.28 |
| CN(C)C1CCCN(C(=O)NCc2ccccc2-n2cccn2)C1 (centres undefined) | -4.14 |

----------
Quick list: cytotoxicity at 10 µM per entry.
- ASSAY_DETAILS: Toxicity liver stage against HepG2, at 10uM
- Type: cell-based
- Set-up: test concentration 10 uM, cell line HepG2-A16-CD81EGFP
- MEASUREMENT_PARAMETERS: human, HepG2-A16-CD81EGFP cells; read-out: INHIBITION

| MOLECULE | READOUT_UNITS | cytotoxicity at 10 µM |
| --- | --- | --- |
| O=C(O)[C@]12CCCN(Cc3ccncc3)[C@@H]1CCN(c1cnccn1)C2 | % | 20.4 |
| CCSc1cc(C(=O)NCCC(=O)Nc2ccccn2)ccn1 | % | -8.62 |
| O=C(c1ccccc1F)N1CCCC1Cn1c(=O)oc2ccccc21 (stereo unspecified) | % | 4.49 |
| O=S(=O)(NCc1ccccc1Cn1cncn1)N1CCCCCC1 | % | 0.512 |
| CC(C)c1noc(CN(Cc2ccccc2)C2CC2)n1 | % | 0.563 |
| CCn1cc(CN2CCCn3nc(CCC(=O)NCCO)cc3C2)cn1 | % | -18.2 |
| COCC(=O)N1CCN(C(=O)Cc2cccs2)[C@H]2CS(=O)(=O)C[C@H]21 | % | 2.21 |
| CN1CCN(CC2CN(CC3CC3)Cc3nccn3C2)CC1 (stereo unspecified) | % | -76.1 |
| CS(=O)(=O)NCc1cc2n(n1)CCCN(Cc1cc3ccccc3o1)C2 | % | 0.403 |
| CN1CCc2c(C#N)c(NCc3ccccc3)n3cnnc3c2C1 | % | 3.93 |
| COCCC1(C(=O)O)CCCN(c2cc(C)c3ccccc3n2)C1 (stereo unspecified) | % | -38.7 |
| CNC(=O)c1cccc(NC(=O)CN2CCCN(S(C)(=O)=O)CC2)c1 | % | 3.56 |
| OCCNc1nc(NCc2cccnc2)nc2nccnc12 | % | -3.55 |
| Cc1cn2nc(N3CCN(Cc4cc(C)on4)CC3)sc2n1 | % | -12.1 |
| CCc1nc(CNCC2CCCN2c2cc(NC)ncn2)cs1 (stereo unspecified) | % | -9.11 |
| O=C(NCCOc1ccc2c(c1)OCO2)C1CC(=O)N(CC2CC2)C1 (stereo unspecified) | % | -6.63 |
| COc1ccc(NC(=O)c2nc3ccccc3n(C)c2=O)cc1OC | % | -7.36 |
| N#Cc1ccc(CN2C(=O)c3ccccc3CS2(=O)=O)c(F)c1 | % | -0.639 |
| CC(C)N1CCC(c2nccnc2Nc2cnccn2)CC1 | % | 1.44 |
| C=C(C)CN(CC)Cc1nc(C2CC2)no1 | % | -7.51 |
| Cc1ncc(CN2CCN(c3ccc4nncn4n3)C(C)C2)s1 (stereo unspecified) | % | -9.04 |
| Cc1noc(CNc2cc3c(cc2Cl)NC(=O)CO3)n1 | % | 3.07 |
| CC(C)n1cc(S(=O)(=O)NCCc2nnc3ccccn23)cn1 | % | 7.07 |
| Cc1ncoc1C(=O)N1CCOC(Cc2ccccc2)C1 (stereo unspecified) | % | 2.23 |
| COc1ccc2c(c1)C(=O)CC1(CCN(Cc3ccc(F)cc3)CC1)O2 | % | 16.6 |
| Cc1nc(CN(CCS(C)(=O)=O)C(C)(C)C)no1 | % | -1.86 |
| CNC(=O)N1CCc2nc(C(=O)NCc3cccc(OC)c3)sc2CC1 | % | -84.2 |
| Cc1nc(CN2CCCN(CC(=O)Nc3cccnc3)CC2)no1 | % | 2.31 |
| COc1ccc(NC(=O)C(C)n2cncn2)cn1 (stereo unspecified) | % | -16.4 |
| Cc1cc(NC(C)Cc2cccs2)n2nccc2n1 (stereo unspecified) | % | 1.22 |
| CC(=O)N1CCCn2nc(CNS(=O)(=O)N(C)C(C)C)cc2C1 | % | 3.54 |
| CC1=CC(C)(C)N(CN2C(=O)c3ccccc3C2=O)c2ccccc21 | % | 5.82 |
| Cc1ccc(C(=O)NCc2ccc(N3CCNC(=O)C3)c(F)c2)cc1 | % | -3.31 |
| O=C(NCCNC(=O)C1Cc2cc(F)ccc2O1)C1CCCCC1 (stereo unspecified) | % | 4.07 |
| NC(=O)NC(CC(=O)N1CCc2sccc2C1)c1cccc(Br)c1 (stereo unspecified) | % | 3.43 |
| CC(C)(CNC(=O)C1CCCN(C(N)=O)C1)c1cccc(Cl)c1 (stereo unspecified) | % | 1.75 |
| Cc1ncsc1CCN(C)Cc1cc2n(n1)CCN(Cc1ccco1)C2 | % | -4.93 |
| CC[C@@]1(O)CCN(C(=O)CCNC(=O)c2ccc(F)cc2)C[C@H]1O | % | 0.0652 |
| CC(NC(=O)Nc1nccs1)c1cccnc1 (stereo unspecified) | % | -8.81 |
| CC(Cc1ccco1)NC(=O)CCn1cccn1 (stereo unspecified) | % | -6.19 |
| COCC(=O)N1CCN(Cc2cc(-c3ccncc3)nn2C)CC1 | % | -4.17 |
| COc1cccc(CN2CCCC(Nc3cccc(F)c3)C2)c1O (stereo unspecified) | % | -10.2 |
| CN1CC(=O)N(c2ccsc2)CC12CCN(S(=O)(=O)C1CC1)C2 (stereo unspecified) | % | -0.298 |
| Cc1ccc(N2CCCC(NCc3cscn3)C2)nn1 (stereo unspecified) | % | -7.2 |
| Cc1cc(C)n(CCCC(=O)N2CCc3ncc(Cl)cc3C2)n1 | % | -25.3 |
| Cc1ccc(CN2CCN(C(=O)c3ccc(CO)cc3)C(C)C2=O)cc1 (stereo unspecified) | % | 6.42 |
